Target: Ubiquitin carboxyl-terminal hydrolase 17-like protein 5 (Homo sapiens)
Test: ubiquitin-specific protease 17 DUB inhibitors, concentration-effect assay, cell-free, verification of initial screening actives (AID 1645864)
Conditions: purified USP17, ubiquitin-rhodamine cleavage fluorescence, 3 h
Calls of active or inactive are those of the source.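 How the source made its calls: active means maximal inhibition of USP17 at or above 30% in the confirmation dose-response, a value not among the printed readouts; inactive means the rest.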
Mark one answer only. Choices: active, inactive

q: GET /call?item= O=C(c1ccc2ncccc2c1)N1CCC2(C1)Nc1cccnc1NC2=NC1CCCC1 (stereo unspecified) returns the recorded outcome of this test.
a: inactive

q: GET /call?item= "c1coc(CNc2nc3ccccc3n3nnnc23)c1" returns the recorded outcome of this test.
a: inactive

###

Biological target: Ubiquitin carboxyl-terminal hydrolase 17-like protein 5 (Homo sapiens)
Test: ubiquitin-specific protease 17 DUB inhibitors, concentration-effect assay, cell-free, verification of initial screening actives (AID 1645864)
Conditions: purified USP17, ubiquitin-rhodamine cleavage fluorescence, 3 h
The source made the active and inactive calls.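 Rule for the calls: active = maximal inhibition of USP17 at or above 30% in the confirmation dose-response, a value not among the printed readouts; inactive = the rest.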
Mark one answer only. Choices: Yes (active), No (inactive)

Examples with answers:
>  <compound>
Cc1ccc(NCc2cc3c(C(C)(C)C)nn(-c4ccc(Cl)cc4)c3[nH]c2=O)cc1

>  <label_class>
Yes

$$$$
>  <compound>
CCCc1nc2sc3c(N(CC)CC)ncnc3c2c2c1CCC2

>  <label_class>
No

$$$$
>  <compound>
COc1cccc(OCCCn2c(C(C)NC(=O)c3ccco3)nc3ccccc32)c1 (configuration not stated)

>  <label_class>
Yes

$$$$
>  <compound>
CCOc1ccc(NC(=O)CSc2nc3n[nH]c(C)c3c(=N)n2-c2ccc(OC)cc2)cc1

>  <label_class>
No

$$$$

q: GET /call?item= "COc1ccccc1NC(=O)c1cc2c(C)nn(Cc3ccccc3)c2s1" returns the recorded outcome of this test.
a: Yes

q: GET /call?item= "O=c1ccc(-c2noc(Cc3cccc(Cl)c3)n2)c[nH]1" returns the recorded outcome of this test.
a: No

q: GET /call?item= CN=C(N)NCCC/C=C/CCCC(C)CC(C)C1OC(=O)/C=C/C(C)C(O)CC(O)C(C)C(O)CCC(C)C(O)CC2(O)OC(CC(OC(=O)CC(=O)O)CC(O)CC(O)C(C)C(O)/C=C/C1C)CC(O)C2O (configuration not stated) returns the recorded outcome of this test.
a: No

q: GET /call?item= "O=C(COc1ccc(Cl)cc1)N1CCc2cc3ccccc3nc21" returns the recorded outcome of this test.
a: Yes

q: GET /call?item= "CC1CCN(Cc2nnc(-c3cn(CC(=O)NC4CCCCC4)c4ccccc34)o2)CC1" returns the recorded outcome of this test.
a: No

q: GET /call?item= "O=C(COc1nsnc1N1CCOCC1)Nc1ccc(F)c(F)c1" returns the recorded outcome of this test.
a: No

q: GET /call?item= "O=C(Nc1cc(F)c2nc(N3CCOCC3)ccc2c1)c1ccc(Br)o1" returns the recorded outcome of this test.
a: Yes

q: GET /call?item= "Nc1ccc(F)c(NS(=O)(=O)c2ccccc2)c1" returns the recorded outcome of this test.
a: No

q: GET /call?item= "CCc1c(C)c(C#N)c2nc3ccccc3n2c1N1CCN(C2CCCC2)CC1" returns the recorded outcome of this test.
a: Yes

q: GET /call?item= "Cc1cccc(NC(=O)CSc2nnc(-c3n[nH]c4c3CCC4)n2N)c1" returns the recorded outcome of this test.
a: Yes

q: GET /call?item= "N#C/C(=C\c1ccc(OCc2cccc(C(=O)O)c2)cc1)c1ccc(F)cc1" returns the recorded outcome of this test.
a: Yes

q: GET /call?item= "Oc1ccc(-c2nc3cnccn3c2NCCc2ccccc2)c(O)c1" returns the recorded outcome of this test.
a: No

q: GET /call?item= "COc1ccc(Nc2nc(C(=O)NCc3ccc4c(c3)OCO4)cc3occc23)cc1" returns the recorded outcome of this test.
a: Yes

q: GET /call?item= "FC(F)(F)c1cccc(Nc2nnc(-c3cccnc3)s2)c1" returns the recorded outcome of this test.
a: Yes
